# reported koff; entries follow
- Target: T1, HER2 immobilised on a Biacore chip (UniProt P04626 23-652, limits assumed)
- T1 construct: also called immobilised HER2 target antigen (Biacore SPR); HER2 chip
- Protocol notes: Biacore SPR, HER2 amine-coupled to the chip
Quantity name: koff (s⁻¹)

Binder	Unit abbreviation	Result
scFv (TCT1067)-DM1-dPEG12 DAR 8 (scFv, Maytansine DM1-dPEG12 (from compound 90) on lysine residues, DAR 8 by LC-MS, also called TCT1067-Maytansine-PEG(12) DM1 ADC 2; scFv (TCT1067)-DM1 DAR 8) scFv: SGSGGSGQVQLVQSGAEVKKPGESLKISCKGSGYSFTSYWIAWVRQMPGKGLEYMGLIYPGDSDTKYSPSFQGQVTISVDKSVSTAYLQWSSLKPSDSAVYFCARHDVGYCTDRTCAAWPEWLGVWGQGTLVTVSSGGGGSGGGGSGGGGSQSVLTQPPSVSAAPGQKVTISCSGSSSNIGNNYVSWYQQLPGTAPKLLIYGHTNRPAGVPDRFSGSKSGTSASLAISGFRSEDEADYYCASWDYTLSGWVFGGGTKLTVLMASMTGGQQMG	s⁻¹	3.28e-05
scFv (TCT1067)-Auristatin-F-C5 DAR 3.3 (scFv, Auristatin F-C5 on lysine residues; DAR 3.64 by AAA, 2.9 by MS, average 3.3, also called TCT1067-AF-C5 ADC 1) scFv: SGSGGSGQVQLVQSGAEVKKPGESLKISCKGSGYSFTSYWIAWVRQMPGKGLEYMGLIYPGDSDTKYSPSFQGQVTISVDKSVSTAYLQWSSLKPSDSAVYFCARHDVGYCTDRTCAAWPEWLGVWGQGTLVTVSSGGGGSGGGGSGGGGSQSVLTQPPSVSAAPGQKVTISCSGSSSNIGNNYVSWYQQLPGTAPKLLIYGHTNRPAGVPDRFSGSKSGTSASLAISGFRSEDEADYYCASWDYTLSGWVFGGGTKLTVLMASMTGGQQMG	s⁻¹	1.82e-05
